Target: CDK2/CycA2 (Homo sapiens, UniProt P24941)
Construct: purchased Carna Biosciences
Test: Kinase panel profiling at 1 µmol/L (mobility shift assay, Carna)
Type: biochemical
Conditions: 1 µmol/L of BTK inhibitor
readout.label: Percentage inhibition of kinase enzyme activity (%)
Dear colleague, please return just the value in %, with no unit written.

Study these solved cases before continuing.
• COc1ccc(F)cc1C(=O)NCc1ccc(-c2nn([C@@H](C)C(F)(F)F)c(N)c2C(N)=O)cc1 = -4.56
• CC#CC(=O)N1CCC[C@H]1c1nc(-c2ccc(C(=O)Nc3ccccn3)cc2)c2c(N)nccn12 = -5.19
• O=C(c1ccc(Oc2ccccc2)cc1Cl)c1c[nH]c2ncnc(N[C@@H]3CC[C@@H](CO)OC3)c12 = -1.69

# lookup: Percentage inhibition of kinase enzyme activity of C=CC(=O)N1CCC[C@@H](n2nc(-c3ccc(Oc4ccccc4)cc3)c3c(N)ncnc32)C1
-11.88
